Test system: human APOE RNA
Test: Dose-dependent inhibition of human APOE RNA in HepG2 cells, electroporation, 50,000 cells per well, RT-PCR normalized to GAPDH (Example 4, Tables 8-10)
Format: cell-based
Details: 205 nM; HepG2, electroporation, 24-hour treatment
Strand notation (5' to 3'): a small letter for the sugar, then the base; units joined by * are phosphorothioate-linked, units joined directly phosphodiester-linked; [ ] holds rarer units or linkages, { } end groups; capitals alone tell only the bases. [ms] = mesyl phosphoramidate linkage; k = constrained ethyl (cEt); [5mC] = 5-methylcytosine; d = 2'-deoxy (DNA)
READOUT_LABEL: APOE RNA (% UTC)
Note: unit % UTC is implicit; provide only the numeric part.

SUBSTANCE	RESULT_VALUE
1746811 (k[5mC]*dT[ms]dT[ms]kG*kG*dT[ms]dG[ms]dA[ms]dA[ms]dT*d[5mC]*dT*dT*dT*dA[ms]dT*dT[ms]kA*kA*kA; antisense) [Compound 1746811]	70
1746791 (k[5mC]*dT[ms]dT[ms]kG*kG*dT[ms]dG[ms]dA[ms]dA[ms]dT*d[5mC]*dT*dT*dT*dA[ms]dT*kT*kA*dA[ms]kA; antisense) [Compound 1746791]	80
1746801 (k[5mC]*dT[ms]dT[ms]kG*kG*dT[ms]dG[ms]dA[ms]dA[ms]dT*d[5mC]*dT*dT*dT*dA[ms]dT*kT*dA[ms]kA*kA; antisense) [Compound 1746801]	76
1747050 (k[5mC]*kT*kT*dG[ms]dG[ms]kT*dG[ms]dA[ms]dA[ms]dT*d[5mC]*dT*dT*dT*dA[ms]dT*kT*dA[ms]dA[ms]kA; antisense) [Compound 1747050]	110

(Q) Bench note: what APOE RNA (% UTC) did 1746790 (k[5mC]*dT[ms]kT*dG[ms]dG[ms]kT*dG[ms]dA[ms]dA[ms]dT*d[5mC]*dT*dT*dT*dA[ms]dT*kT*kA*dA[ms]kA; antisense) [Compound 1746790] show?
(A) 89
